- assay_target: CRBN-DDB1 (Homo sapiens (Human), UniProt Q96SW2)
- Sequence (Q96SW2 whole entry): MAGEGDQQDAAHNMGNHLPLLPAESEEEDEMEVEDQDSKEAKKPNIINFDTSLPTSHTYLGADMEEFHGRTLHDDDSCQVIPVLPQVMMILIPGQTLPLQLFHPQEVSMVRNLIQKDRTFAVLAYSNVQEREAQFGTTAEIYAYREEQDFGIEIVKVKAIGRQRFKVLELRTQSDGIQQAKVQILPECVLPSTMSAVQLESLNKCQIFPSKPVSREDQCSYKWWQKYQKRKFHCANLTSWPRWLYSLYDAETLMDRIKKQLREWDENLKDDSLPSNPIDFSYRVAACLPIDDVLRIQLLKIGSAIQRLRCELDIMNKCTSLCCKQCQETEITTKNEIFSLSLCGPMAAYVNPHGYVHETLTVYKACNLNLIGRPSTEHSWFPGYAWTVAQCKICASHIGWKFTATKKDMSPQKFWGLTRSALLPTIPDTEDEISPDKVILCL
- Sequence (Q16531 whole entry partner): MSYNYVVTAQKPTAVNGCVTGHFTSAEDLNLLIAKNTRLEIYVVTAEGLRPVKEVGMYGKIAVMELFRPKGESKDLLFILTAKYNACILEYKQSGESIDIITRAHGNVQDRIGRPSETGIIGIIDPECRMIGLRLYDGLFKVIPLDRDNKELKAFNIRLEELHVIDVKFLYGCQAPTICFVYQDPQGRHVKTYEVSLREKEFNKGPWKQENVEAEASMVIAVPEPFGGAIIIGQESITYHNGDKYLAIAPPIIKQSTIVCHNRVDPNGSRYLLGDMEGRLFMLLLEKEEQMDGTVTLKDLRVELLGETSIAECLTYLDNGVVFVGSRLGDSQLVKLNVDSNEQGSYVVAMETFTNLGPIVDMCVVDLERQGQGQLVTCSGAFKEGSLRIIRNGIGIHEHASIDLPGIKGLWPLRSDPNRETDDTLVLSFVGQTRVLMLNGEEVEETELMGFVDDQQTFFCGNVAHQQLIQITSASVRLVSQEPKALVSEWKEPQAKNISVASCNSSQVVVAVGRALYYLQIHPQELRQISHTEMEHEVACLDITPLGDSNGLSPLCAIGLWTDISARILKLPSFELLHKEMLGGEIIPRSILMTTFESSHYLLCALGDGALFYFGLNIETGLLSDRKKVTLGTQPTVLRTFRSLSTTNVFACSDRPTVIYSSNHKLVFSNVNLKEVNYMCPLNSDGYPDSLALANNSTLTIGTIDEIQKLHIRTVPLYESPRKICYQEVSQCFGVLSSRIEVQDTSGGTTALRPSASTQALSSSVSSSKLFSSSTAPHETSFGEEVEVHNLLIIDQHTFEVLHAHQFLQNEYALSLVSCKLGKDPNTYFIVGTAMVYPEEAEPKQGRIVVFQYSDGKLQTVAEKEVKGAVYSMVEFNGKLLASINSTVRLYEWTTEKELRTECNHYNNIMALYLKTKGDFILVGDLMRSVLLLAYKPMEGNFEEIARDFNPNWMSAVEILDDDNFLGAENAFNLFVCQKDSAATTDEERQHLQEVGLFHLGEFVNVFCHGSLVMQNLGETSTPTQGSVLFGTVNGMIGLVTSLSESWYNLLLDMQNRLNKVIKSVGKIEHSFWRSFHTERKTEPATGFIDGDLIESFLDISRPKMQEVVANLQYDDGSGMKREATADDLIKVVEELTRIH
- protocol_text: Compound binding to CRBN by HTRF assay
- run_parameters: HTRF class; Cereblon binding
pEC50: −log10 of the molar value.
value_kind: pEC50

These solved cases illustrate the format of a correct answer.
compound | assay_target | pEC50
Cc1coc(C(C)(C)C(=O)NCc2cc(F)c(C3CCC(=O)NC3=O)c(Cl)c2)n1 (stereo not shown) | CRBN-DDB1 (Homo sapiens (Human), UniProt Q96SW2) | 6.00 to 7.00
CN(C)S(=O)(=O)c1ccc(C(C)(C)C(=O)NCc2cc(Cl)c(C3CCC(=O)NC3=O)c(Cl)c2)cc1 (stereo not shown) | CRBN-DDB1 (Homo sapiens (Human), UniProt Q96SW2) | 6.00 to 7.00
CC(C)(C(=O)NCc1cc(Cl)c(C2CCC(=O)NC2=O)c(Cl)c1)c1ccc2[nH]cnc2c1 (stereo not shown) | CRBN-DDB1 (Homo sapiens (Human), UniProt Q96SW2) | ≥ 7.00

Given Cc1nnc(C2(C(=O)NCc3cc(Cl)c(C4CCC(=O)NC4=O)c(Cl)c3)CCC2)o1 (stereo not shown) , state its recorded pEC50.
6.00 to 7.00

Given Cn1ccc2cc(C(C)(C)C(=O)NCc3cc(Cl)c(C4CCC(=O)NC4=O)c(Cl)c3)ccc21 (stereo not shown) , state its recorded pEC50.
≥ 7.00

Given CC1(C(=O)NCc2cc(Cl)c(C3CCC(=O)NC3=O)c(Cl)c2)COc2ccccc2O1 (stereo not shown) , state its recorded pEC50.
≥ 7.00

Given Cc1cnc(C(C)(C)C(=O)NCc2cc(Cl)c([C@@H]3CCC(=O)NC3=O)c(Cl)c2)nc1 (single isomer, unassigned) , state its recorded pEC50.
6.00 to 7.00

====

- assay_target: NEK7 (Homo sapiens (Human), UniProt Q8TDX7+Q96SW2)
- Sequence (Q8TDX7 whole entry): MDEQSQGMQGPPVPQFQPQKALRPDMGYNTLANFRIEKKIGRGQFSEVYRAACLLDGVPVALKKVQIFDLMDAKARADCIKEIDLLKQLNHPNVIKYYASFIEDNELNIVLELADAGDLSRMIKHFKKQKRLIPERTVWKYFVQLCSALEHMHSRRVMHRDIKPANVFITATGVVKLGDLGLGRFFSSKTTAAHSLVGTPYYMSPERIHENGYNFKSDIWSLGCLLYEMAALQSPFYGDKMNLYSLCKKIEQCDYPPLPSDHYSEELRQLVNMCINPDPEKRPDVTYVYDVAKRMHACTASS
- Sequence (Q96SW2 whole entry): as the sequence (Q96SW2 whole entry) above
- Sequence (Q16531 2-1140 partner): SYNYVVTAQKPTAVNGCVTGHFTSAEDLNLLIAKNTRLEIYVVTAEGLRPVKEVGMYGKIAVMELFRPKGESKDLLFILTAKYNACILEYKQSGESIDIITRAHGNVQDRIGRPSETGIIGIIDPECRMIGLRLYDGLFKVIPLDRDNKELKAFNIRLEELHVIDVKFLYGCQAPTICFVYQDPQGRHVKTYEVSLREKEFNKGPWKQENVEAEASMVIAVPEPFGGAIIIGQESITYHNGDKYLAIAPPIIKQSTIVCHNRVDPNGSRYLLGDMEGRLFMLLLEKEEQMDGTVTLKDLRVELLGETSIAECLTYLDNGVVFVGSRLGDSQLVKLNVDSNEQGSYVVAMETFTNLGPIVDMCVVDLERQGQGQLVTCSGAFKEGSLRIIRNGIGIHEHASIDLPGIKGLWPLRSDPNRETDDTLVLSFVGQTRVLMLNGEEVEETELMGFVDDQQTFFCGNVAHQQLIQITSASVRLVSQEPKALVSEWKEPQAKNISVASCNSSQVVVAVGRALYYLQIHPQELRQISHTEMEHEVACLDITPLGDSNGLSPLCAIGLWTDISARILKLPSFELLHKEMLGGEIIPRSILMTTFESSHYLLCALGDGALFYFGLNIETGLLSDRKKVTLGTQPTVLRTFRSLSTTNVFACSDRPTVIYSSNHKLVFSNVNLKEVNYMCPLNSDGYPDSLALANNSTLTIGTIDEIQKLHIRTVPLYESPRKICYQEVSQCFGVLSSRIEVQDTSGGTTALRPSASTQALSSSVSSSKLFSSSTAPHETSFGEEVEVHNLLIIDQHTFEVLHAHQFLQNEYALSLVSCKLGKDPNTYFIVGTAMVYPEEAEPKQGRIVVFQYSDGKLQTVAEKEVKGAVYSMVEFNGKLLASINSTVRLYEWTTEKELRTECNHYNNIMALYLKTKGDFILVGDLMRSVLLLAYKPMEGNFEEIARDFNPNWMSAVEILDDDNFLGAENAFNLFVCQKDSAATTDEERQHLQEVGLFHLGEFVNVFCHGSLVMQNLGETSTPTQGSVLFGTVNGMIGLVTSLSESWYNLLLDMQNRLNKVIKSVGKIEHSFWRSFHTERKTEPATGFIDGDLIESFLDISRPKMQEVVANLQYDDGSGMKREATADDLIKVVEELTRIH
- protocol_text: NEK7 NanoBiT degradation assay in Cal51 NEK7 NanoBiT cell line
- Assay type: cell-based
- run_parameters: NEK7 degradation, Cal51 NEK7 NanoBiT cells, 24 hours; read-out: NanoBiT DC50
value_kind: DC50

These solved cases illustrate the format of a correct answer.
molecule | DC50
COc1cnc(C(C)(C)C(=O)NCc2cc(Cl)c(C3CCC(=O)NC3=O)c(Cl)c2)cn1 (stereo not shown) | ≤ 100 nM
COc1conc1C(C)(C)C(=O)NCc1cc(Cl)c(C2CCC(=O)NC2=O)c(Cl)c1 (stereo not shown) | ≤ 100 nM
COc1ccc(C(C)(C)C(=O)NCc2cc(F)c(C3CCC(=O)NC3=O)c(Cl)c2)cn1 (stereo not shown) | ≤ 100 nM

Now examine the next entry.
Given COCc1ccc(C(C)(C)C(=O)NCc2cc(Cl)c(C3CCC(=O)NC3=O)c(Cl)c2)nn1 (stereo not shown) , state its recorded DC50.
≤ 100 nM

====

- assay_target: CRBN-DDB1 (Homo sapiens (Human))
- protocol_text: Compound binding to CRBN by HTRF assay
- run_parameters: HTRF class; Cereblon binding
pEC50: −log10 of the molar value.
value_kind: pEC50

compound | pEC50
Cn1cncc1C(C)(C)C(=O)NCc1cc(Cl)c(C2CCC(=O)NC2=O)c(Cl)c1 (stereo not shown) [Compound 123] | 6.00 to 7.00

Given CC(C)(C(=O)NCc1cc(Cl)c(C2CCC(=O)NC2=O)c(Cl)c1)c1ccc2nnccc2c1 (stereo not shown) [Compound 41] , state its recorded pEC50.
≥ 7.00

Given Cc1noc(C(C)(C)C(=O)NCc2cc(Cl)c(C3CCC(=O)NC3=O)c(Cl)c2)n1 (stereo not shown) [Compound 164] , state its recorded pEC50.
6.00 to 7.00

Given CCOc1cnc(C(C)(C)C(=O)NCc2cc(F)c(C3CCC(=O)NC3=O)c(Cl)c2)cn1 (stereo not shown) [Compound 252] , state its recorded pEC50.
≥ 7.00

====

- assay_target: CRBN-DDB1 (Homo sapiens (Human), UniProt Q96SW2)
- protocol_text: Compound binding to CRBN by HTRF assay
Label 1 when EC50 < 0.1 µM; otherwise 0.

These recorded examples may help you get a feel for the data.
compound | class_label
CC(C)(C(=O)NCc1cc(Cl)c(C2CCC(=O)NC2=O)c(Cl)c1)c1ncc(N2CCC2)cn1 (stereo not drawn) [Compound 165] | 0
O=C1CCC(c2c(Cl)cc(CNC(=O)C3(c4ccccc4)CCOC3)cc2Cl)C(=O)N1 (stereo not drawn) [Compound 127] | 1
Cc1nc(CNC(=O)C(C)(C)c2ccccc2)cc(Cl)c1C1CCC(=O)NC1=O (stereo not drawn) [Compound 239] | 0
CC(C)(C(=O)NCc1cc(Cl)c(C2CCC(=O)NC2=O)c(Cl)c1)C1CCCCC1 (stereo not drawn) [Compound 211] | 0
CC(C)(C(=O)NCc1cc(Cl)c(C2CCC(=O)NC2=O)c(Cl)c1)c1ccc2nnccc2c1 (stereo not drawn) [Compound 41] | 1
CCOc1cnc(C(C)(C)C(=O)NCc2cc(Cl)c(C3CCC(=O)NC3=O)c(Cl)c2)cn1 (stereo not drawn) [Compound 234] | 1
CC(C)(C(=O)NCc1cc(Cl)c(C2CCC(=O)NC2=O)c(Cl)c1)c1ccc2ncncc2c1 (stereo not drawn) [Compound 33] | 0
CC(C)(C(=O)NCc1cc(Cl)c(C2CCC(=O)NC2=O)c(Cl)c1)c1cc2ncccc2cn1 (stereo not drawn) [Compound 2] | 0

Identify whether the compound COCc1ccnc(C(C)(C)C(=O)NCc2cc(Cl)c(C3CCC(=O)NC3=O)c(Cl)c2)n1 (stereo not drawn) [Compound 217] records EC50 below 0.1 µM.
0

====

- assay_target: NEK7 (Homo sapiens (Human), UniProt Q8TDX7+Q96SW2)
- protocol_text: NEK7 NanoBiT degradation assay in Cal51 NEK7 NanoBiT cell line
- Format: cell-based
- run_parameters: CAL-51; NEK7 degradation, Cal51 NEK7 NanoBiT cells, 24 hours; read-out: NanoBiT Dmax
value_kind: Dmax

Given CC(C)(C(=O)NCc1cc(Cl)c(C2CCC(=O)NC2=O)c(Cl)c1)c1ncc(CC(F)(F)F)cn1 (stereo not drawn) , state its recorded Dmax.
50 to 75%

Given CC(C)(C(=O)NCc1cc(Cl)c(C2CCC(=O)NC2=O)c(Cl)c1)N1Cc2ccccc2C1 (stereo not drawn) , state its recorded Dmax.
50 to 75%

Given Cn1ncc2ccc(C3(C(=O)NCc4cc(Cl)c(C5CCC(=O)NC5=O)c(Cl)c4)CC(=O)C3)cc21 (stereo not drawn) , state its recorded Dmax.
> 75%

Given CC(C)(C(=O)NCc1cc(Cl)c(C2CCC(=O)NC2=O)c(Cl)c1)c1nc(C(F)F)no1 (stereo not drawn) , state its recorded Dmax.
50 to 75%

Given Cc1cnc(C(C)(C)C(=O)NCc2cc(Cl)c([C@H]3CCC(=O)NC3=O)c(Cl)c2)nc1 (single isomer, unassigned) , state its recorded Dmax.
50 to 75%

Given CC(C)(C(=O)NCc1ccc(C2CCC(=O)NC2=O)c(Cl)c1)c1nc2ccccc2o1 (stereo not drawn) , state its recorded Dmax.
> 75%

Given CC(C)(C(=O)NCc1cc(Cl)c(C2CCC(=O)NC2=O)c(Cl)c1)c1cccc(NS(C)(=O)=O)c1 (stereo not drawn) , state its recorded Dmax.
> 75%

Given CC(C)(C(=O)NCc1cc(Cl)c(C2CCC(=O)NC2=O)c(Cl)c1)c1cc(C#N)ccn1 (stereo not drawn) , state its recorded Dmax.
50 to 75%

Given CCn1ccc(C(C)(C)C(=O)NCc2cc(Cl)c(C3CCC(=O)NC3=O)c(Cl)c2)cc1=O (stereo not drawn) , state its recorded Dmax.
> 75%

Given COCc1ccnc(C(C)(C)C(=O)NCc2cc(Cl)c(C3CCC(=O)NC3=O)c(Cl)c2)n1 (stereo not drawn) , state its recorded Dmax.
50 to 75%

Given CC(C)(C(=O)NCc1ccc(C2CCC(=O)NC2=O)c(Cl)c1)c1ccc(F)cc1 (stereo not drawn) , state its recorded Dmax.
> 75%

Given CN1Cc2ccccc2CC1C(=O)NCc1cc(Cl)c(C2CCC(=O)NC2=O)c(Cl)c1 (stereo not drawn) , state its recorded Dmax.
50 to 75%

Given Cc1nc(CNC(=O)C(C)(C)c2ccccc2)cc(Cl)c1C1CCC(=O)NC1=O (stereo not drawn) , state its recorded Dmax.
≤ 50%

Given CC(C)(C(=O)NCc1cc(Cl)c(C2CCC(=O)NC2=O)c(Cl)c1)c1cscn1 (stereo not drawn) , state its recorded Dmax.
50 to 75%

====

- assay_target: CRBN-DDB1 (Homo sapiens (Human))
- protocol_text: Compound binding to CRBN by HTRF assay
- Method: Compound activity was monitored in a Homogenous Time-Resolved Fluorescence (HTRF) assay using 1-[5-({2-[2-(2-{[2-(2,6-dioxopiperidin-3-yl)-1,3-dioxo-2,3-dihydro-1H-isoindol-4-yl]oxy}acetamido)ethoxy]ethyl}carbamoyl)pentyl]-3,3-dimethyl-2-[(1E,3E)-5-[(2E)-1,3,3-trimethyl-5-sulfo-2,3-dihydro-1H-indol-2-ylidene]penta-1,3-dien-1-yl]-3H-indol-1-ium-5-sulfonate as a fluorescent probe. Biochemical assays were conducted in Greiner white 384 well HiBase plates (Cat. No 784075-25) in 20 μL total volume. […]
value_kind: EC50 (nM)
Give the quantity in nM, number only.

These solved cases illustrate the format of a correct answer.
compound | EC50 (nM)
Cn1cncc1C(C)(C)C(=O)NCc1cc(Cl)c(C2CCC(=O)NC2=O)c(Cl)c1 (stereo not drawn) [Compound 123] | 610
CC(C)(C(=O)NCc1cc(Cl)c(C2CCC(=O)NC2=O)c(Cl)c1)c1ncccn1 (stereo not drawn) [Compound 34] | 140
O=C1CCC(c2c(Cl)cc(CNC(=O)C3(c4ccncc4)CCCC3)cc2Cl)C(=O)N1 (stereo not drawn) [Compound 143] | 40
CC(C)(C(=O)NCc1cc(Cl)c(C2CCC(=O)NC2=O)c(Cl)c1)c1cnc(F)nc1 (stereo not drawn) [Compound 5] | 120
CC(C)(C(=O)NCc1cc(Cl)c(C2CCC(=O)NC2=O)c(Cl)c1)c1ccns1 (stereo not drawn) [Compound 125] | 70

Missing value: EC50, CRBN-DDB1 (Homo sapiens (Human)), entry CC(C)(C(=O)NCc1cc(Cl)c(C2CCC(=O)NC2=O)c(Cl)c1)c1ccncc1 (stereo not drawn) [Compound 108] . Fill in?
80

Missing value: EC50, CRBN-DDB1 (Homo sapiens (Human)), entry [2H]C([2H])([2H])C(C(=O)NCc1cc(Cl)c(C2CCC(=O)NC2=O)c(Cl)c1)(c1ncc(C)cn1)C([2H])([2H])[2H] (stereo not drawn) [Compound 237] . Fill in?
150

Missing value: EC50, CRBN-DDB1 (Homo sapiens (Human)), entry CC(C)(C(=O)NCc1cc(Cl)c(C2CCC(=O)NC2=O)c(Cl)c1)c1ccc2c(c1)S(=O)(=O)NC2 (stereo not drawn) [Compound 32] . Fill in?
110
